Source: patent US8314131B2

test system: THP1 cells (LPS-induced TNF-α); test: Lipopolysaccharide-activated THP1 cell TNF production assay; settings: Homo sapiens, THP-1, TNF-α secretion, read-out: THP-1 cell based assay IC50
MEASUREMENT LABEL: IC50

Reported IC50 for "Cc1cc(F)ccc1-n1nnc2cc(-c3cc(C(=O)NC4CC4)cc(F)c3C)ccc21" : what is it?
< 0.025 µM

Reported IC50 for "Cc1ccc(C(=O)NC2CC2)cc1-c1ccc2c(c1)nnn2-c1ccccc1Cl" : what is it?
0.025 to 0.1 µM

* * *

Below, each entry is listed alongside its reported pIC50.
test system: THP1 cells (LPS-induced TNF-α); assay: Lipopolysaccharide-activated THP1 cell TNF production assay; conditions: Homo sapiens, THP-1, TNF-α secretion, read-out: THP-1 cell based assay IC50
pIC50: −log10 of the molar value.

Cc1ccc(C(=O)NC(C)C)cc1-c1ccc2c(c1)nnn2C(C)C [Example 4] | 6.00 to 6.60
Cc1c(F)cc(C(=O)NC2CC2)cc1-c1ccc2c(c1)nnn2C1CCOCC1 [Example 11] | 7.00 to 7.60
Cc1c(F)cc(C(=O)Nc2ccnn2C)cc1-c1ccc2c(c1)nnn2-c1ccccc1Cl [Example 9] | > 7.60

Reported pIC50 for Cc1c(F)cc(C(=O)NC2CC2)cc1-c1ccc2c(c1)nnn2C(C)(C)C [Example 10] : what is it?
> 7.60

Reported pIC50 for Cc1c(F)cc(C(=O)NC2CC2)cc1-c1ccc2c(c1)nnn2-c1ccccc1Cl [Example 6] : what is it?
> 7.60

Reported pIC50 for Cc1ccc(C(=O)NC2CC2)cc1-c1ccc2c(c1)nnn2C(C)C [Example 5] : what is it?
7.00 to 7.60
